target: Gonadotropin-releasing hormone receptor (Rattus norvegicus); assay: Affinity for rat gonadotrophin releasing hormone (GnRH) receptor using HEK293 cells transfected with rat Gonadotropin-releasing hormone receptor; type: cell-based; settings: hek293
Sequence (P30969 whole entry): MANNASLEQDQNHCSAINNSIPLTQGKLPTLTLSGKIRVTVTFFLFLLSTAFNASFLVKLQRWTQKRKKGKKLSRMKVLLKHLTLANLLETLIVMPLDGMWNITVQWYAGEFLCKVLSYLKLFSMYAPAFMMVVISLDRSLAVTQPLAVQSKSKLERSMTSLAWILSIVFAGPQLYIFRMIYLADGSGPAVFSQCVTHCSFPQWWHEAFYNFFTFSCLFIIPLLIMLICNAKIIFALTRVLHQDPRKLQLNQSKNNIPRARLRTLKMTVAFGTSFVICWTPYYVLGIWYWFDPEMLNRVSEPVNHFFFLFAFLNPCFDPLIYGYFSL
pKi: −log10 of the molar value.
RECORDED METRIC: pKi

>>> test_result("CC(=O)N[C@H]1CCC(=O)NCCCC[C@@H](C(=O)N2CCC[C@H]2C(=O)N[C@@H](C)C(N)=O)NC(=O)[C@H](CC(C)C)NC(=O)[C@H](Cc2ccc3ccccc3c2)NC(=O)[C@H](CCCNC(=N)N)NC(=O)[C@H](C)NC(=O)[C@H](Cc2cccnc2)NC(=O)[C@H](Cc2ccc(Cl)cc2)NC1=O")
7.21
>>> test_result("CC(=O)N[C@H]1CSSC[C@H]2NC(=O)[C@@H](CC(=O)NC[C@H](C(N)=O)NC(=O)[C@H]3CCCN3C(=O)[C@H](CCCN=C(N)N)NC(=O)[C@@H](CC(C)C)NC(=O)[C@@H](Cc3ccc4ccccc4c3)NC2=O)NC(=O)[C@@H](Cc2c[nH]c3ccccc23)NC(=O)[C@H](Cc2ccc(Cl)cc2)NC1=O")
9.60
>>> test_result("CC(=O)N[C@H](Cc1ccc2ccccc2c1)C(=O)N[C@H](Cc1ccc(Cl)cc1)C(=O)N[C@@H]1CCC(=O)NCCCC[C@@H](C(=O)N2CCC[C@H]2C(=O)N[C@H](C)C(N)=O)NC(=O)[C@H](CC(C)C)NC(=O)[C@@H](Cc2ccc3ccccc3c2)NC(=O)[C@H](CCCNC(=N)N)NC(=O)[C@H](CO)NC1=O")
7.64
